// data source = ChEMBL document CHEMBL2021852

# experiment notes: Oral bioavailability in rat at 8 mg/kg
# Type: ADME, organism-based
# condition set: in vivo
measure name: bioavailability (%)
Report the figure in % without appending any unit label.

input: Assign bioavailability to the following record: "CNC[C@H](CC1CCCCC1)NC(=O)N1CCC[C@@H]([C@@H](OCCNC(=O)OC)c2cccc(Cl)c2)C1.O=C(O)/C=C/C(=O)O"
output: 9.4

* * *

# experiment notes: Clearance in dog at 1 mg/kg, iv
# Type: ADME, organism-based, Canis lupus familiaris
# Design: dose 1 mg/kg, route intravenous
# condition set: in vivo
measure name: clearance (mL/min/kg)
Please state the figure in mL/min/kg; there is no need to write the unit.

input: Give the value of clearance reported for the following: COCCCOc1cc(C[C@@H](C[C@H](N)[C@@H](O)C[C@H](C(=O)NCC(C)(C)C(N)=O)C(C)C)C(C)C)ccc1OC.COCCCOc1cc(C[C@@H](C[C@H](N)[C@@H](O)C[C@H](C(=O)NCC(C)(C)C(N)=O)C(C)C)C(C)C)ccc1OC.O=C(O)/C=C/C(=O)O [ALISKIREN FUMARATE]
output: 11

* * *

# experiment notes: Half life in rat at 1.6 mg/kg, iv
# Assay type: ADME, organism-based
# Design: dose 1.6 mg/kg, route intravenous
# condition set: in vivo
Reported half-life values follow for various compounds
All answers are understood in h, so give the number only.

{"molecule": "CNC[C@H](CC1CCCCC1)NC(=O)N1CCC[C@@H]([C@@H](OCCNC(=O)OC)c2cccc(Cl)c2)C1.O=C(O)/C=C/C(=O)O", "half-life, h": 16.2}

input: Return value of half-life for input "CNC[C@H](CC1CCCCC1)NC(=O)N1CCC[C@@H]([C@@](O)(CCCCOC)c2cccc(Cl)c2F)C1.O=C(O)/C=C/C(=O)O" , no commentary.
output: 15.9

* * *

# experiment notes: Half life in cynomolgus monkey at 1 mg/kg, iv
# Type: ADME, organism-based, Macaca fascicularis
# Design: dose 1 mg/kg, route intravenous
# condition set: in vivo
half-life: recorded values
Use h as the unit, but write only the number.

Observe how each entry below is paired with its result.
{"compound": "CN[C@H](CNC(=O)N1CCC[C@@H]([C@@H](OCCNC(=O)OC)c2cccc(Cl)c2)C1)C[C@H]1CCCOC1.O=C(O)/C=C/C(=O)O", "half-life (h)": 12.3}
{"compound": "CNC[C@H](C[C@H]1CCCOC1)NC(=O)N1CCC[C@@H]([C@@H](OCCNC(=O)OC)c2cccc(Cl)c2)C1.O=C(O)/C=C/C(=O)O", "half-life (h)": 14}
{"compound": "CNC[C@H](CC1CCCCC1)NC(=O)N1CCC[C@@H]([C@@H](OCCNC(=O)OC)c2cccc(Cl)c2)C1.O=C(O)/C=C/C(=O)O", "half-life (h)": 23.3}

input: Write down half-life measured for item COCCCOc1cc(C[C@@H](C[C@H](N)[C@@H](O)C[C@H](C(=O)NCC(C)(C)C(N)=O)C(C)C)C(C)C)ccc1OC.COCCCOc1cc(C[C@@H](C[C@H](N)[C@@H](O)C[C@H](C(=O)NCC(C)(C)C(N)=O)C(C)C)C(C)C)ccc1OC.O=C(O)/C=C/C(=O)O [ALISKIREN FUMARATE]
output: 14.7

* * *

# experiment notes: Half life in rat at […], iv
# Assay type: ADME, organism-based
# Parameters: dose 1.5 mg/kg, route intravenous
# condition set: in vivo
measure name: half-life (h)
Supply the numeric figure in h, leaving out any unit text.

input: # return recorded half-life for entry "CNC[C@H](C[C@H]1CCCOC1)NC(=O)N1CCC[C@@H]([C@@H](OCCNC(=O)OC)c2cccc(Cl)c2)C1.O=C(O)/C=C/C(=O)O"
output: 18.3

* * *

# experiment notes: Fraction unbound in cynomolgus monkey plasma
# Format: ADME, cell-free, Macaca fascicularis
measure name: fraction unbound
Form rule: numeric answer, no unit written next to it.

input: Check the records and state fraction unbound for "CN[C@H](CNC(=O)N1CCC[C@@H]([C@@H](OCCNC(=O)OC)c2cccc(Cl)c2)C1)C[C@H]1CCCOC1"
output: 0.29

* * *

# experiment notes: Volume of distribution at steady state in rat at 1.6 mg/kg, iv and 8.2 mg/kg, po
# Assay type: ADME, organism-based
# condition set: in vivo, read-out: Vdss
measure name: Vd (L/kg)
Your answer should be a plain number; it is taken to be in L/kg.

input: Hello, please tell me recorded Vd for this one: "CNC[C@H](CC1CCCCC1)NC(=O)N1CCC[C@@H]([C@@](O)(CCCCOC)c2cccc(Cl)c2F)C1.O=C(O)/C=C/C(=O)O"
output: 16

* * *

# experiment notes: Volume of distribution at steady state in rat at […], iv and 8.2 mg/kg, po
# Format: ADME, organism-based
# condition set: in vivo, read-out: Vdss
measure name: Vd (L/kg)
Express your answer in L/kg, writing the number without its unit.

input: Find the measured Vd of "CNC[C@H](C[C@H]1CCCOC1)NC(=O)N1CCC[C@@H]([C@@H](OCCNC(=O)OC)c2cccc(Cl)c2)C1.O=C(O)/C=C/C(=O)O" and report it.
output: 39

* * *

# experiment notes: Clearance in rat at 1.6 mg/kg, iv
# Type: ADME, organism-based
# Set-up: dose 1.6 mg/kg, route intravenous
# condition set: in vivo
Entries and their measured clearance follow.
Please reply with the bare figure in mL/min/kg and do not write the unit itself.

{"molecule": "CNC[C@H](CC1CCCCC1)NC(=O)N1CCC[C@@H]([C@@H](OCCNC(=O)OC)c2cccc(Cl)c2)C1.O=C(O)/C=C/C(=O)O", "numeric value": 36}

We next turn to a different molecule, shown below.
input: Give me measured clearance, please, for this molecule: "CNC[C@H](CC1CCCCC1)NC(=O)N1CCC[C@@H]([C@@](O)(CCCCOC)c2cccc(Cl)c2F)C1.O=C(O)/C=C/C(=O)O"
output: 30

* * *

# experiment notes: AUC (0 to t) in rat at 4 mg/kg, po
# Type: ADME, organism-based
# Set-up: dose 4 mg/kg, route oral
# condition set: plasma
measure name: AUC(0-t)
Quick note: number first, unit second.

input: Indicate its recorded AUC(0-t); the molecule in question is "COCCCC[C@@](O)(c1cccc(Cl)c1F)[C@@H]1CCCN(C(=O)NC[C@@H](N)CC2CCCCC2)C1.O=C(O)/C=C/C(=O)O"
output: 269 ng·h/mL

* * *

# experiment notes: Clearance in dog at 0.5 mg/kg, iv
# Format: ADME, organism-based, Canis lupus familiaris
# Parameters: dose 0.5 mg/kg, route intravenous
# condition set: in vivo
measure name: clearance (mL/min/kg)
Reply with just the number (in mL/min/kg).

input: Identify clearance associated with the compound "CN[C@H](CNC(=O)N1CCC[C@@H]([C@@H](OCCNC(=O)OC)c2cccc(Cl)c2)C1)C[C@H]1CCCOC1.O=C(O)/C=C/C(=O)O"
output: 12.9

* * *

# experiment notes: Volume of distribution at steady state in rat at 2 mg/kg, iv and 10 mg/kg, po
# Type: ADME, organism-based
# condition set: in vivo, read-out: Vdss
measure name: Vd
Quick note: number first, unit second.

input: Using the record for "CN[C@H](CNC(=O)N1CCC[C@@H]([C@@H](OCCNC(=O)OC)c2cccc(Cl)c2)C1)C[C@H]1CCCOC1.O=C(O)/C=C/C(=O)O" , state its measured Vd.
output: 38 L/kg

* * *

# experiment notes: Clearance in rat at 0.8 mg/kg, iv
# Assay type: ADME, organism-based
# Set-up: dose 0.8 mg/kg, route intravenous
# condition set: in vivo
measure name: clearance (L/h/kg)
Value expressed in L/h/kg; do not type the unit.

input: Given the molecule "COCCCC[C@@](O)(c1cccc(Cl)c1F)[C@@H]1CCCN(C(=O)NC[C@@H](N)CC2CCCCC2)C1.O=C(O)/C=C/C(=O)O" , write its reported clearance.
output: 2.82

* * *

This listing pairs compounds with measured pIC50.
# system under test: Renin (Homo sapiens)
# Sequence (P00797 whole entry): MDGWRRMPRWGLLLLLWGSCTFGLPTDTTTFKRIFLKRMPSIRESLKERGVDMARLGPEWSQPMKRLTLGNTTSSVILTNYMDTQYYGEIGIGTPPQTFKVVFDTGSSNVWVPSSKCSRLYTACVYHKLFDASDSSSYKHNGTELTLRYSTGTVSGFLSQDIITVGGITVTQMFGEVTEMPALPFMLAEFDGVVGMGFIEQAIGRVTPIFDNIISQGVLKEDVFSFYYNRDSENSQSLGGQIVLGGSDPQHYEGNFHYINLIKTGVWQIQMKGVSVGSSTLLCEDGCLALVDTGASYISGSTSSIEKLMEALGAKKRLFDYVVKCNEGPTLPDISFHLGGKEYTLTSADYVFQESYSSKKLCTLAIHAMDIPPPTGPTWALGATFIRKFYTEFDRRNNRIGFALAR
# experiment notes: Inhibition of human recombinant renin using DABCYL-gamma-Abu-Ile-His-Pro-Phe-His-Leu-Val-Ile-His-Thr-EDANS as substrate for 60 mins by fluorimetry
The quantity pIC50 is defined as the negative base-10 logarithm of the molar concentration.

Some solved cases for reference:
{"compound": "COCCCC[C@@](O)(c1cccc(Cl)c1F)[C@@H]1CCCN(C(=O)NC[C@@H](N)CC2CCCCC2)C1", "pIC50": 8.66}
{"compound": "CNC[C@H](C[C@H]1CCCOC1)NC(=O)N1CCC[C@@H]([C@@H](OCCNC(=O)OC)c2cccc(Cl)c2)C1", "pIC50": 9.25}
{"compound": "CNC[C@H](CC1CCOCC1)NC(=O)N1CCC[C@@H]([C@@H](OCCNC(=O)OC)c2cccc(Cl)c2)C1", "pIC50": 8.21}
{"compound": "CNC[C@@H](NC(=O)N1CCC[C@@H]([C@@H](OCCNC(=O)OC)c2cccc(Cl)c2)C1)[C@@H](O)C1CCCCC1", "pIC50": 9.48}
{"compound": "CNC[C@H](C[C@@H]1CCCOC1)NC(=O)N1CCC[C@@H]([C@@H](OCCNC(=O)OC)c2cccc(Cl)c2)C1", "pIC50": 8.26}

input: Please tell me the measured pIC50 for CN[C@H](CNC(=O)N1CCC[C@@H]([C@@H](OCCNC(=O)OC)c2cccc(Cl)c2)C1)C[C@H]1CCCOC1 [VTP-27999] ; system: Renin (Homo sapiens).
output: 9.33

input: Give reported pIC50 for "CNC[C@H](CC1CCCCC1)NC(=O)N1CCC[C@@H]([C@@](O)(CCCCOC)c2cccc(Cl)c2F)C1" (Renin (Homo sapiens))
output: 9.14
